test: inhibitors of TNFa-induced NFkB p65 translocation, primary screen, imaging, HUVEC, MLSMR starter and 10KST1 sets (AID 438); details: HUVEC TNFa-induced p65 nuclear translocation; measured here: nuclei count (cytotoxicity indicator), at 2.08 µM;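 also: compound added about 3h40 before a 20 min TNFalpha stimulation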
Note to self: values exactly at 600 are fulfilled. So cell count at or above 600 is fulfilled, below is not fulfilled.

Example cases with answers are listed next.
Cc1cccc(-c2nc(CN3CCCC(C(=O)NC4CCCC4)C3)c(C)o2)c1 (configuration not stated)    not fulfilled
CCOC(=O)c1cccc(NC(=O)CNS(=O)(=O)c2cccs2)c1    not fulfilled
CCOC(=O)C1C2C=CC3(CN(c4cccc(Cl)c4)C(=O)C13)O2 (configuration not stated)    fulfilled
COc1ccc(N2C(=O)C(Cl)=C(N3CCCC3)C2=O)cc1    not fulfilled
CC1CCN(c2nc3c(c(=O)n(C)c(=O)n3C)n2Cc2ccccc2)CC1    fulfilled

Ask: Is the recorded value of cell count equal to or greater than 600 for this compound? CCC1(C)Cc2c(C#N)c(N)n(N)c(=S)c2CO1 (configuration not stated)
Reply: fulfilled

Ask: Is the recorded value of cell count equal to or greater than 600 for this compound? CC(=O)N1CCN(C2c3cccc4cccc(c34)C2NS(=O)(=O)c2ccccc2)CC1 (configuration not stated)
Reply: not fulfilled

Ask: Is the recorded value of cell count equal to or greater than 600 for this compound? `CN(C)c1cccc2c(S(=O)(=O)Nc3ccccn3)cccc12`
Reply: fulfilled

Ask: Is the recorded value of cell count equal to or greater than 600 for this compound? `N#Cc1cc2ccccc2nc1SCC(=O)Nc1ccccc1N1CCOCC1`
Reply: not fulfilled

Ask: Is the recorded value of cell count equal to or greater than 600 for this compound? `COc1ccc2nc(SCC(=O)O)nc(C)c2c1`
Reply: not fulfilled

Ask: Is the recorded value of cell count equal to or greater than 600 for this compound? `CCN(CC)CCCNc1oc(-c2cccc(Cl)c2)nc1C#N`
Reply: fulfilled

Ask: Is the recorded value of cell count equal to or greater than 600 for this compound? CCOc1ccc(C2C(C#N)=C(N)Oc3cc(C)n(CCN4CCOCC4)c(=O)c32)cc1OCC (configuration not stated)
Reply: not fulfilled

Ask: Is the recorded value of cell count equal to or greater than 600 for this compound? C=CCOc1ccc(/C(O)=C2/C(=O)C(=O)N(CCCN3CCOCC3)C2c2ccccc2)cc1 (configuration not stated)
Reply: not fulfilled
